In this section, each of the molecules is paired with its reported Porcine Ventricle IC25.
# assayed_target: Porcine Ventricle myofibrils (left ventricle of Yucatan minipigs) (Sus scrofa, UniProt P79293)
# Construct: Myofibrils from porcine cardiac muscle was isolated from the left ventricle of Yucatan minipigs; tissue Exemplar Genetics; host or cells: left ventricle of Yucatan minipigs
# Sequence (P79293 whole entry): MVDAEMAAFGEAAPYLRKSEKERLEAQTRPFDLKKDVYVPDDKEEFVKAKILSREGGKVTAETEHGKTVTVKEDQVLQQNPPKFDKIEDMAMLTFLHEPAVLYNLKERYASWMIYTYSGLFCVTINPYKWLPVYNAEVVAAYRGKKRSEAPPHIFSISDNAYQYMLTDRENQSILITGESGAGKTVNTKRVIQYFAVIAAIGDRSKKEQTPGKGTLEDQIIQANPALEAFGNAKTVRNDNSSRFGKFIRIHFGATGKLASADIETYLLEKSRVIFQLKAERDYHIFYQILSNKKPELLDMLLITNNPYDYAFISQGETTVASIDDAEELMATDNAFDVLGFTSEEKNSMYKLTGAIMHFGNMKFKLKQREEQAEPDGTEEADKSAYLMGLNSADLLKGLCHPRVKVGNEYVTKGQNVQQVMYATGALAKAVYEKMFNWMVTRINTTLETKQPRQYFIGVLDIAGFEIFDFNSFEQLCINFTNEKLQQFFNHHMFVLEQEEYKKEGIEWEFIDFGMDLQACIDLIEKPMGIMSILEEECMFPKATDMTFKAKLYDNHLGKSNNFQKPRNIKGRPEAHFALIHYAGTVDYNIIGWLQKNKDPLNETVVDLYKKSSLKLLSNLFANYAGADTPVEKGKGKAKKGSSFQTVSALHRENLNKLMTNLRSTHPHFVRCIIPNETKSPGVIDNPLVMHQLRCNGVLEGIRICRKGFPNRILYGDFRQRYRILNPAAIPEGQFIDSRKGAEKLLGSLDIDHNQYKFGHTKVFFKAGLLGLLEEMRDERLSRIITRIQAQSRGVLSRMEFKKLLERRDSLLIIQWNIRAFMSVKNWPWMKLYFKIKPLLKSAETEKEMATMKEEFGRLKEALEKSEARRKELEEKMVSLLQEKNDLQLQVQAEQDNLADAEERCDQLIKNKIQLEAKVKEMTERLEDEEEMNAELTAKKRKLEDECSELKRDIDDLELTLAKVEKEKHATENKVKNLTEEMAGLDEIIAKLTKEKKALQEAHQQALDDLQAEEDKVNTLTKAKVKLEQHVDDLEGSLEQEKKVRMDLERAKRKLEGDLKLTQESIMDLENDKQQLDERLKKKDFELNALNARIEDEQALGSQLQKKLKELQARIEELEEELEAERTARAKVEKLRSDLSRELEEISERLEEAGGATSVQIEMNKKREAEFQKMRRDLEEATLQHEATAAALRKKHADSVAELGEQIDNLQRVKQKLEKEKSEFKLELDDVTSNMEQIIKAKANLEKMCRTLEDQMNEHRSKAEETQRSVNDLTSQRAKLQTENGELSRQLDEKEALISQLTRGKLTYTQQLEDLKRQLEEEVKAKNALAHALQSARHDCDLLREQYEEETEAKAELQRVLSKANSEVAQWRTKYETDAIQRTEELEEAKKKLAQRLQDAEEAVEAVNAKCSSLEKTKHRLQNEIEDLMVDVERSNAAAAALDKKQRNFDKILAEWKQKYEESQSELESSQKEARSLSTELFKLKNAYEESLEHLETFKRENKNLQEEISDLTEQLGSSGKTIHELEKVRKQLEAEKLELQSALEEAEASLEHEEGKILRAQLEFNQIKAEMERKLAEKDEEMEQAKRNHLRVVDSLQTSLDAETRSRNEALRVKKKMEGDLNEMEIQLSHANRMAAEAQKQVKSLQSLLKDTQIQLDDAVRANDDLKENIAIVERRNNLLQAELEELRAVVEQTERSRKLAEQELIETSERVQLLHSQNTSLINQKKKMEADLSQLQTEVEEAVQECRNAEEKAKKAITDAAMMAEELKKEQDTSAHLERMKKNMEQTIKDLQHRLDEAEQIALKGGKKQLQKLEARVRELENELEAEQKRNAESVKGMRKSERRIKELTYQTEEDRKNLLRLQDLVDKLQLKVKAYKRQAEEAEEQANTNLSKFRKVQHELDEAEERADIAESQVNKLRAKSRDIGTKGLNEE
# method_summary: Myofibril ATPase assay (PK/LDH NADH-coupled), ventricle myofibrils
# Type: biochemical
# study_conditions: Table 7
metric: Porcine Ventricle IC25 (µM)

| molecular_string | observed_measurement |
| --- | --- |
| N#Cc1cnc2c(c1)CC[C@@H]2NC(=O)CN1C(=O)Nc2cccnc2C12CC2 | 34.26 |
| C[C@H](NC(=O)CN1C(=O)Nc2cccnc2[C@H]1C)c1ccc(F)cc1F | 24.08 |
| C[C@H](NC(=O)[C@@H](C)N1Cc2nc(F)ccc2NC1=O)c1ccc(F)cc1F | 6.67 |
| C[C@H](NC(=O)CN1C(=O)Nc2ccncc2[C@H]1C)c1ccc(F)cc1F | 100 |

====

# Test system: Rabbit Skeletal myofibrils (rabbit psoas muscle)
# method_summary: Myofibril ATPase assay (PK/LDH NADH-coupled), skeletal myofibrils
# Assay type: biochemical
# study_conditions: Table 8

| compound | value_unit | Rabbit Psoas IC25 |
| --- | --- | --- |
| C[C@H](NC(=O)[C@H](C)N1Cc2cc(F)ccc2NC1=O)c1ccc(F)cc1F | µM | 0.3555 |
| O=C(CN1C(=O)Nc2ccc(F)c(F)c2C12CC2)N[C@@H]1COc2cc(F)cnc21 | µM | 0.06 |
| C[C@H](NC(=O)CN1C(=O)Nc2ccc(F)c(F)c2[C@H]1C)c1ccc(F)cc1F (relative stereo) | µM | 0.0328 |
| C[C@H](NC(=O)CN1Cc2c(ccc(F)c2F)NC1=O)c1cc2ccccc2cn1 | µM | 100.00 |
| C[C@@H](NC(=O)CN1Cc2cc(F)cc(C#N)c2NC1=O)c1ccc(C#N)cc1F | µM | 100 |
| C[C@H](NC(=O)[C@H](Cc1ccccc1)N1Cc2cc(F)ccc2NC1=O)c1ccc(F)cc1F | µM | 31.8 |
| Cc1cnncc1C(C)NC(=O)CN1Cc2c(ccc(F)c2F)NC1=O (single isomer, unassigned) | µM | 100 |
| C[C@H](NC(=O)CN1Cc2c(ccc(F)c2F)NC1=O)c1cc2cccnc2cn1 | µM | 100.00 |

====

In this section, each of the molecules is paired with its reported Porcine Atria IC25.
# Tested on: Porcine Atria myofibrils
# method_summary: Myofibril ATPase assay (PK/LDH NADH-coupled), atria myofibrils
# Type: biochemical
# study_conditions: Table 8
metric: Porcine Atria IC25 (nM)

| molecule | assayed_target | observed_measurement |
| --- | --- | --- |
| C[C@@H](NC(=O)CN1Cc2c(ccc(F)c2F)NC1=O)c1ncc(C#N)s1 [Compound B280] | Porcine Atria myofibrils | 610 |
| CC(=O)N1CC2(C1)c1cc(F)ccc1NC(=O)N2CC(=O)N[C@@H](C)c1ncc(C#N)cc1F [Compound B256] | Porcine Atria myofibrils | 75740 |
| C[C@H](NC(=O)CN1Cc2cc(C#N)ccc2NC1=O)c1ncc(C#N)cc1F [Compound B144] | Porcine Atria myofibrils | 720 |
| C[C@H](NC(=O)CN1C(=O)Nc2ccc(F)c(F)c2[C@@H]1C)c1ccc(F)cc1F (relative stereo) [Compound B231] | Porcine Atria myofibrils | 210 |
| O=C(CN1Cc2cc(F)ccc2NC1=O)N[C@H](CO)c1ncc(F)cc1F [Compound B180] | Porcine Atria myofibrils | 100000 |
| O=C(CN1Cc2c(ccc(F)c2F)NC1=O)N[C@H]1COc2c(F)cc(F)cc2C1 [Compound B102] | Porcine Atria myofibrils | 100 |
| Cc1cc(F)c2c(c1)NC(=O)N(CC(=O)N[C@@H](C)c1ccc(C#N)cc1F)C2 [Compound B13] | Porcine Atria myofibrils | 60 |
| O=C(CN1Cc2c(ccc(F)c2F)NC1=O)N[C@@H]1COCc2cc(F)cnc21 [Compound B362] | Porcine Atria myofibrils | 100000 |
